Measured mean nematode size ln(EXT) (ln), listed per entry for reference.
System: Caenorhabditis elegans N2
assay details: mean nematode size ln(EXT) after 48 h, plate-adjusted (DMSO control set to 6) (ln(EXT), control-adjusted); higher = larger nematodes / less growth inhibition
run parameters: 10 µM; exposure time 48 h

[
  {
    "molecule": "C=CCCCCCCCCC(=O)O",
    "mean nematode size ln(EXT) (ln)": 5.88
  },
  {
    "molecule": "N#Cc1cc(Br)c(O)c(Br)c1",
    "mean nematode size ln(EXT) (ln)": 5.91
  },
  {
    "molecule": "c1ccc2c(c1)Nc1ccccc1S2",
    "mean nematode size ln(EXT) (ln)": 5.8
  },
  {
    "molecule": "COC(=O)c1ccccc1C(=O)O [Methyl hydrogen phthalate]",
    "mean nematode size ln(EXT) (ln)": 6.07
  },
  {
    "molecule": "CCCCC(CC)COC(=O)CCCCC(=O)OCc1ccccc1 (centres undefined) [Benzyloctyl adipate (BOA)]",
    "mean nematode size ln(EXT) (ln)": 6.02
  },
  {
    "molecule": "CC(C)N(C(=O)SCC(Cl)=C(Cl)Cl)C(C)C [Tri-allate]",
    "mean nematode size ln(EXT) (ln)": 5.9
  },
  {
    "molecule": "O=C(O)C(F)(F)C(F)(F)C(F)(F)C(F)(F)C(F)(F)C(F)(F)C(F)(F)C(F)(F)C(F)(F)F",
    "mean nematode size ln(EXT) (ln)": 4.6
  },
  {
    "molecule": "CCN(CC)C(=O)c1cc(S(=O)(=O)Cc2ccccc2)c(N2CCC(c3ccccc3)CC2)cc1N(CC)CCN(C)C",
    "mean nematode size ln(EXT) (ln)": 5.57
  },
  {
    "molecule": "CCOC(=O)C(Cl)Cc1cc(-n2nc(C)n(C(F)F)c2=O)c(F)cc1Cl (centres undefined)",
    "mean nematode size ln(EXT) (ln)": 6.04
  },
  {
    "molecule": "CC(=O)OC/C=C(\\C)CCC=C(C)C [Geranyl acetate]",
    "mean nematode size ln(EXT) (ln)": 5.81
  },
  {
    "molecule": "Oc1cc2ccccc2c2ccccc12",
    "mean nematode size ln(EXT) (ln)": 5.72
  },
  {
    "molecule": "CSC(=O)c1cccc2nnsc12",
    "mean nematode size ln(EXT) (ln)": 5.6
  },
  {
    "molecule": "CC(C)[C@H](C(=O)O[C@H](C#N)c1cccc(Oc2ccccc2)c1)c1ccc(Cl)cc1 [Esfenvalerate]",
    "mean nematode size ln(EXT) (ln)": 5.73
  },
  {
    "molecule": "COc1ccc2sc(C(=O)Nc3nnn[nH]3)c(OC(C)C)c2c1",
    "mean nematode size ln(EXT) (ln)": 6.11
  },
  {
    "molecule": "CCCOc1sc(C(=O)N2CCC(c3cc(CN)ccc3F)CC2)c(C)c1Br",
    "mean nematode size ln(EXT) (ln)": 4.86
  },
  {
    "molecule": "OC(c1ccc(Cl)cc1)(c1ccc(Cl)cc1)C(Cl)(Cl)Cl",
    "mean nematode size ln(EXT) (ln)": 4.39
  },
  {
    "molecule": "CC[C@H](NC(=O)c1cc(F)ccc1NS(=O)(=O)c1cccc2cccnc12)c1ccccc1",
    "mean nematode size ln(EXT) (ln)": 5.52
  },
  {
    "molecule": "COP(=O)(OC)C(O)C(Cl)(Cl)Cl (centres undefined)",
    "mean nematode size ln(EXT) (ln)": 5.31
  },
  {
    "molecule": "CCCN(CCOc1c(Cl)cc(Cl)cc1Cl)C(=O)n1ccnc1",
    "mean nematode size ln(EXT) (ln)": 6.29
  },
  {
    "molecule": "CCc1nn(C2CCCCC2)c2cc(C3(C#N)CCC(C(=O)O)CC3)ccc12 (centres undefined)",
    "mean nematode size ln(EXT) (ln)": 5.93
  },
  {
    "molecule": "CC(C)(C)c1cc(O)ccc1O [tert-Butylhydroquinone]",
    "mean nematode size ln(EXT) (ln)": 5.81
  },
  {
    "molecule": "CC(C)OC(=O)C(C)(C)Oc1ccc(C(=O)c2ccc(Cl)cc2)cc1 [Fenofibrate]",
    "mean nematode size ln(EXT) (ln)": 5.61
  },
  {
    "molecule": "CCCOC/C(=N\\c1ccc(Cl)cc1C(F)(F)F)n1ccnc1",
    "mean nematode size ln(EXT) (ln)": 6.04
  },
  {
    "molecule": "N#Cc1c(Cl)c(Cl)c(Cl)c(C#N)c1Cl",
    "mean nematode size ln(EXT) (ln)": 5.95
  },
  {
    "molecule": "C#CCN1C(=O)COc2cc(F)c(N3C(=O)C4=C(CCCC4)C3=O)cc21",
    "mean nematode size ln(EXT) (ln)": 5.99
  },
  {
    "molecule": "Oc1c(Cl)c(Cl)c(Cl)c(Cl)c1Cl",
    "mean nematode size ln(EXT) (ln)": 5.89
  },
  {
    "molecule": "CCC(C)c1ccccc1O (centres undefined)",
    "mean nematode size ln(EXT) (ln)": 5.94
  },
  {
    "molecule": "Cc1oc(-c2ccccc2)nc1CCOc1cccc2c1ccn2CCC(=O)O",
    "mean nematode size ln(EXT) (ln)": 5.73
  },
  {
    "molecule": "O=c1ccc(=O)[nH][nH]1 [Maleic hydrazide]",
    "mean nematode size ln(EXT) (ln)": 5.96
  },
  {
    "molecule": "CCN(Cc1cccc(S(=O)(=O)O)c1)c1ccc(C(=C2C=CC(=[N+](CC)Cc3cccc(S(=O)(=O)O)c3)C=C2)c2ccccc2S(=O)(=O)[O-])cc1",
    "mean nematode size ln(EXT) (ln)": 5.88
  },
  {
    "molecule": "Oc1ccccc1Cl",
    "mean nematode size ln(EXT) (ln)": 6.11
  },
  {
    "molecule": "CCOP(=S)(OCC)SCn1c(=O)oc2cc(Cl)ccc21",
    "mean nematode size ln(EXT) (ln)": 4.73
  },
  {
    "molecule": "COc1nn(CSP(=S)(OC)OC)c(=O)s1",
    "mean nematode size ln(EXT) (ln)": 5.52
  },
  {
    "molecule": "Fc1ccc(Oc2ccnc3cc(Cl)cc(Cl)c23)cc1",
    "mean nematode size ln(EXT) (ln)": 4.2
  },
  {
    "molecule": "c1ccc2ncccc2c1",
    "mean nematode size ln(EXT) (ln)": 5.79
  },
  {
    "molecule": "CCc1c(C(=O)NN2CCCCC2)nn(-c2ccc(Cl)cc2Cl)c1-c1ccc(Br)cc1",
    "mean nematode size ln(EXT) (ln)": 5.44
  },
  {
    "molecule": "N[C@@H](Cc1c[nH]c2ccccc12)C(=O)O",
    "mean nematode size ln(EXT) (ln)": 5.86
  },
  {
    "molecule": "c1ccc(C(O[C@@H]2CCCN(CCc3ccc4c(c3)OCO4)C2)c2ccccc2)cc1",
    "mean nematode size ln(EXT) (ln)": 5.55
  },
  {
    "molecule": "CC1(C)CC(N=C=O)CC(C)(CN=C=O)C1 (mixture of isomers) [Isophorone diisocyanate, mixture of isomers]",
    "mean nematode size ln(EXT) (ln)": 5.71
  }
]

---

Tested on: Caenorhabditis elegans N2
assay details: mean nematode size ln(EXT) after 48 h, plate-adjusted (DMSO control set to 6) (ln(EXT), control-adjusted); higher = larger nematodes / less growth inhibition
run parameters: 10 µM; exposure time 48 h
Counter-ions that a name gives are not always drawn.
Each entry below carries its recorded mean nematode size ln(EXT) (ln).
parameter: mean nematode size ln(EXT) (ln)

[
  {
    "compound": "Clc1ccc(C(c2ccc(Cl)cc2)C(Cl)(Cl)Cl)cc1 [p,p'-DDT]",
    "recorded value": 3.75
  },
  {
    "compound": "CCC(CC)Nc1c([N+](=O)[O-])cc(C)c(C)c1[N+](=O)[O-] [Pendimethalin]",
    "recorded value": 5.77
  },
  {
    "compound": "CC(C)COC(=O)CCCCC(=O)OCC(C)C [Diisobutyl adipate]",
    "recorded value": 5.85
  },
  {
    "compound": "CCOc1cc(Oc2ccc(C(F)(F)F)cc2Cl)ccc1[N+](=O)[O-] [Oxyfluorfen]",
    "recorded value": 3.99
  },
  {
    "compound": "C=CC(=C)CCC=C(C)C [Myrcene]",
    "recorded value": 5.75
  },
  {
    "compound": "CN1C(=O)CC[C@H]1c1cccnc1 [(-)-Cotinine]",
    "recorded value": 5.82
  },
  {
    "compound": "O=C(Nc1ccc(Cl)cc1)Nc1ccc(Cl)c(Cl)c1 [3,4,4'-Trichlorocarbanilide]",
    "recorded value": 4.21
  },
  {
    "compound": "CCCCCCCCC(=O)O [Nonanoic acid]",
    "recorded value": 5.91
  },
  {
    "compound": "CC(CO)OC(C)CO.CC(O)COCC(C)O (stereo unspecified) [Dipropylene glycol]",
    "recorded value": 5.87
  },
  {
    "compound": "Cc1ccc(N=C=O)cc1N=C=O [Toluene-2,4-diisocyanate]",
    "recorded value": 5.78
  },
  {
    "compound": "Nc1ccc(N=Nc2ccccc2)cc1 [4-Aminoazobenzene]",
    "recorded value": 5.49
  },
  {
    "compound": "CCCCN(CCCC)SN(C)C(=O)Oc1cccc2c1OC(C)(C)C2 [Carbosulfan]",
    "recorded value": 4.86
  },
  {
    "compound": "CC(=O)[O][Hg][c]1ccccc1 [Phenylmercuric acetate]",
    "recorded value": 3.93
  },
  {
    "compound": "c1cc(-c2ccncc2)ccn1 [4,4'-bipyridine]",
    "recorded value": 5.94
  },
  {
    "compound": "Cc1ccc(O)c(C)c1 [2,4-Dimethylphenol]",
    "recorded value": 5.87
  },
  {
    "compound": "c1ccc(/N=N/c2ccccc2)cc1 [Azobenzene]",
    "recorded value": 5.61
  },
  {
    "compound": "CN(C)[C@@H]1C(=O)C(C(N)=O)=C(O)[C@@]2(O)C(=O)C3=C(O)c4c(O)cccc4[C@@](C)(O)[C@H]3C[C@@H]12 [Tetracycline]",
    "recorded value": 6.05
  },
  {
    "compound": "O=C(O)c1cccc(Oc2ccccc2)c1 [3-Phenoxybenzoic acid]",
    "recorded value": 5.87
  },
  {
    "compound": "CCCOC(=O)NCCCN(C)C [Propamocarb hydrochloride]",
    "recorded value": 5.93
  },
  {
    "compound": "CCN(CC)c1nc(C)cc(OP(=S)(OC)OC)n1 [Pirimiphos-methyl]",
    "recorded value": 5.92
  },
  {
    "compound": "CCCSP(=O)(OCC)Oc1ccc(Br)cc1Cl (stereo unspecified) [Profenofos]",
    "recorded value": 6.04
  }
]
